What kcat was measured for each of the following?
target: Factor X (FX), P00742
Sequence (P00742 whole entry, looked up): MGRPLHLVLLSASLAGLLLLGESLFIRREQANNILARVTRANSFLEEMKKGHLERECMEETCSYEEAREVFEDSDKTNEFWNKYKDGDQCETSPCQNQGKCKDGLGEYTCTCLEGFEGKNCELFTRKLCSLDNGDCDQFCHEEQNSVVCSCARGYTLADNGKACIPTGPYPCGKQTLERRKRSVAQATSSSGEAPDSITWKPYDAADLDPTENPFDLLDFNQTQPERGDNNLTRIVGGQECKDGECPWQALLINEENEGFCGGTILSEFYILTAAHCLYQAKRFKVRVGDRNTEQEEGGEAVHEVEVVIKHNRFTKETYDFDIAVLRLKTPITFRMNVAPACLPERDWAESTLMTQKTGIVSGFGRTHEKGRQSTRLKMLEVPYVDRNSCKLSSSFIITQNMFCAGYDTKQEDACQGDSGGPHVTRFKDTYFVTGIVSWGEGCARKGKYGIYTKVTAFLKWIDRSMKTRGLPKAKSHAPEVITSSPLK

Example proteins with recorded kcat:
For the protein FIXa-Y155F/K247N/N249S/R338E/T343R/R403E (protein) chain 1: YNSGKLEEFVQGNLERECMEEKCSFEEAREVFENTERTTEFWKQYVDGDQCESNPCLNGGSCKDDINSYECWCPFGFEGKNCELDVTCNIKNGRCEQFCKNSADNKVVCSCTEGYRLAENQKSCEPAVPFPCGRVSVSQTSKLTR chain 2: VVGGEDAKPGQFPWQVVLNGKVDAFCGGSIVNEKWIVTAAHCVETGVKITVVAGEHNIEETEHTEQNRSVIRIIPHHNYNAAINKYNHDIALLELDEPLVLNSYVTPICIADKEYTNIFLKFGSGYVSGWGRVFHKGRSALVLQYLRVPLVDRATCLESTKFRIYNNMFCAGFHEGGRDSCQGDSGGPHVTEVEGTSFLTGIISWGEECAMKGKYGIYTKVSEYVNWIKEKTKLT , give its reported kcat.
14.6 s⁻¹

Supply measured kcat of FIXa-Y155F/K228N/K247N/N249S/R318Y/R338E/T343R/R403E/E410N (protein) chain 1: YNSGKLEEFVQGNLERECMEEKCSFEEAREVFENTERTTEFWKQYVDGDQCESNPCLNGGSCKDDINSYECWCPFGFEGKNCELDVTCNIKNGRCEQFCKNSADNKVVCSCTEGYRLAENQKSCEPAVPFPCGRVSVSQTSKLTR chain 2: VVGGEDAKPGQFPWQVVLNGKVDAFCGGSIVNEKWIVTAAHCVETGVNITVVAGEHNIEETEHTEQNRSVIRIIPHHNYNAAINKYNHDIALLELDEPLVLNSYVTPICIADKEYTNIFLKFGSGYVSGWGRVFHKGYSALVLQYLRVPLVDRATCLESTKFRIYNNMFCAGFHEGGRDSCQGDSGGPHVTEVEGTSFLTGIISWGEECAMKGKYGIYTKVSEYVNWIKNKTKLT in your reply.
9.4 s⁻¹

Annotate the protein FIXa-Y155F/R338E/T343R/R403E/E410S (protein) chain 1: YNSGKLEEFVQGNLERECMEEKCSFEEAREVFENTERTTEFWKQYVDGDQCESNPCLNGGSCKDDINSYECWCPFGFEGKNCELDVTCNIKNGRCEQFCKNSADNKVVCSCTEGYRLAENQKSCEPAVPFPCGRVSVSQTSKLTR chain 2: VVGGEDAKPGQFPWQVVLNGKVDAFCGGSIVNEKWIVTAAHCVETGVKITVVAGEHNIEETEHTEQKRNVIRIIPHHNYNAAINKYNHDIALLELDEPLVLNSYVTPICIADKEYTNIFLKFGSGYVSGWGRVFHKGRSALVLQYLRVPLVDRATCLESTKFRIYNNMFCAGFHEGGRDSCQGDSGGPHVTEVEGTSFLTGIISWGEECAMKGKYGIYTKVSEYVNWIKSKTKLT with its measured kcat.
6.8 s⁻¹

Alright, here's another protein for you.
Give reported kcat value for FIXa-K247N/N249S/R338E/T343R/R403E (protein) chain 1: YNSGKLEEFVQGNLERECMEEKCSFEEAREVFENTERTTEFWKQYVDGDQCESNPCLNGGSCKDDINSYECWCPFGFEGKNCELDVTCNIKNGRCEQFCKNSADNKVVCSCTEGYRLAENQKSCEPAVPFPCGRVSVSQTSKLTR chain 2: VVGGEDAKPGQFPWQVVLNGKVDAFCGGSIVNEKWIVTAAHCVETGVKITVVAGEHNIEETEHTEQNRSVIRIIPHHNYNAAINKYNHDIALLELDEPLVLNSYVTPICIADKEYTNIFLKFGSGYVSGWGRVFHKGRSALVLQYLRVPLVDRATCLESTKFRIYNNMFCAGFHEGGRDSCQGDSGGPHVTEVEGTSFLTGIISWGEECAMKGKYGIYTKVSEYVNWIKEKTKLT
14.6 s⁻¹
